observationType: melting point

// solved cases for melting point follow
Cc1csc(C2(O)C(=O)N(Cc3ccccc3)CC2C(=O)O)n1 (stereo not drawn) ... 109 to 111 °C
O=C(O)Cc1coc(-c2ccc(Cl)cc2)n1 ... 191 to 193 °C
Cc1nc(C(=O)O)nn1-c1ccccc1Cl ... 189 to 191 °C

Each of the following entries comes with a recorded value; kindly state melting point for each.
1. Nc1cc(F)c(F)cc1Br
2. O=C(O)CNC(=O)c1cc2c(s1)CCC2
3. CC(C)CNCC(O)c1ccc(F)cc1 (stereo not drawn)
4. C1CCC(c2nnc3n2CCCC3)NC1 (stereo not drawn)
5. Nc1cc([N+](=O)[O-])ccc1C(=O)O

["47 to 49 °C", "207 to 209 °C", "56 to 58 °C", "107 to 109 °C", "257 to 259 °C"]

* * *

So I've got a bunch of compounds here, and I need their melting point values.

Please review the entries below; each comes with its answer.
CC(C)c1cc(C(=O)O)nn1-c1ccncc1 ... 225 to 227 °C
Nc1cccc(S(=O)(=O)Nc2cn[nH]c2)c1 ... 194 to 196 °C
COc1cccc(C(=O)NCC(=O)O)c1 ... 78 to 80 °C
Sc1nnc(C2CC2)n1C1CC1 ... 138 to 140 °C
CC(C)(C)OC(=O)NCC(=O)NN ... 79 to 81 °C
Cc1ccc(-c2nc(C)c(C(=O)O)s2)c(C)c1 ... 218 to 220 °C

Would you mind giving melting point for every compound in the list below?
1. COC(=O)c1ccc(CNC(=O)C(C)Cl)cc1 (centres undefined)
2. O=[N+]([O-])c1cncc(Br)c1
3. N#Cc1ccc(N=C=O)cc1
4. Nc1ccc(F)cc1Nc1ccccc1F
5. O=C(CCl)N1CCc2[nH]c3ccccc3c2C1
6. CC(Oc1cccc(Br)c1)C(=O)NN (centres undefined)
7. COc1cc(Cl)c(C)cc1N

["96 to 98 °C", "99 to 101 °C", "101 to 104 °C", "53 to 55 °C", "188 to 190 °C", "113 to 115 °C", "102 to 103 °C"]

Return melting point (reported value) for this compound: `O=C(Nc1ccccc1C(=O)O)c1ccccc1Br` 201 to 203 °C

* * *

Give measured melting point for each item. Keep answers brief.

Solved entries:
COc1ccc(NS(=O)(=O)c2cc(N)ccc2N2CCOCC2)cc1 ... 232 to 234 °C
CC(=O)CC(=O)NCCc1ccccc1 ... 57 to 59 °C
CCNC(=O)COc1cccc(CN)c1 ... 62 to 64 °C
CC(C)(C)OC(=O)Nc1cscn1 ... 153 to 155 °C
O=C(CCl)NC1CCN(C(=O)C2CCCCC2)CC1 ... 133 to 135 °C
NCc1ccn(-c2ccc(F)cc2)n1 ... 56 to 58 °C
O=C(O)CN1C(=O)CCCc2sccc21 ... 138 to 140 °C
COCCOc1ccc(-n2nc(C)c(C(=O)O)n2)cc1 ... 157 to 159 °C
O=c1[nH]ccc2sccc12 ... 159 to 161 °C
O=C(O)c1oc2ccccc2c1Cn1cccn1 ... 226 to 228 °C

Could you report melting point for every entry in the following list?
1. CC(Cl)C(=O)Nc1ccc(Cl)cc1 (stereo not drawn)
2. ClCc1csc(-c2ccccn2)n1
3. CSCc1nc(N)ccc1Cl
4. Nc1ccc(C(=O)NCc2ccccn2)c(Cl)c1
5. Cc1cc(CSc2ccccc2C(=O)O)on1
6. COCCn1c(N)cc(=O)[nH]c1=O
7. COC(=O)c1n[nH]c(C)c1Cl
8. CNS(=O)(=O)c1cc(OC)c(OC)cc1Br

1: 100 to 102 °C; 2: 85 to 87 °C; 3: 70 to 72 °C; 4: 159 to 161 °C; 5: 157 to 161 °C; 6: 90 to 92 °C; 7: 129 to 131 °C; 8: 156 to 158 °C
